// reported IC50 for each item listed
Test system: HCT116 FOP control reporter cell line
measurement notes: HCT116 FOPFlash control reporter assay (FOP control vector, non-functional TCF elements)
Type: cell-based
run conditions: Homo sapiens, HCT-116, 36 h, HCT116 FOP control reporter cells, 36 hours incubation, luciferase expression
Please respond with the number in µM and leave the unit unwritten.

Worked set:
[ask] Which IC50 value belongs to COc1ccc(NC(=O)c2ccc(-c3ccc(F)cc3)s2)cc1NC(=O)CN1CCOCC1 [Example 36] ?
[reply] 22

[ask] Which IC50 value belongs to Cc1ccc(C(=O)Nc2nnc(-c3ccccc3)s2)cc1NC(=O)C1(N2CCOCC2)CC1 [Example 103] ?
[reply] 21

Next, consider the following compound.
[ask] Which IC50 value belongs to CN1CCN(C2(C(=O)Nc3cc(C(=O)Nc4nnc(-c5ccccc5)s4)ccc3OC(F)F)CC2)CC1 [Example 39] ?
[reply] 32

----------
Tested on: HCT116 FOP control reporter cell line
measurement notes: HCT116 FOPFlash control reporter assay (FOP control vector, non-functional TCF elements)
Type: cell-based
run conditions: Homo sapiens, HCT-116, 36 h, HCT116 FOP control reporter cells, 36 hours incubation, luciferase expression
pIC50: −log10 of the molar value.
quantity: pIC50

[ask] For the record C[C@H]1CN(C)CCN1CC(=O)Nc1cc(C(=O)Nc2ccc(-c3ccccc3F)nc2)ccc1OC(F)(F)F [Example 162] , what value of pIC50 is listed for HCT116 FOP control reporter cell line?
[reply] ≤ 4.30

---
[ask] For the record COCc1ccc(C(=O)Nc2nnc(-c3ccccc3)s2)cc1NC(=O)CN1CCOCC1 [Example 83] , what value of pIC50 is listed for HCT116 FOP control reporter cell line?
[reply] ≤ 4.30

[ask] For the record CN1CCN(CC(=O)Nc2cc(C(=O)Nc3nnc(-c4ccc(Cl)cc4)s3)ccc2OC(F)(F)F)CC1 [Example 147] , what value of pIC50 is listed for HCT116 FOP control reporter cell line?
[reply] ≤ 4.30

[ask] For the record C[C@H]1CN(CC(=O)Nc2cc(C(=O)Nc3ccc(-c4ccccc4F)nc3)ccc2OC(F)(F)F)CCN1C [Example 163] , what value of pIC50 is listed for HCT116 FOP control reporter cell line?
[reply] ≤ 4.30

[ask] For the record O=C(CN1CCOCC1)Nc1cc(C(=O)Nc2ccc(-c3ccccc3)nc2)ccc1C(F)(F)F [Example 13] , what value of pIC50 is listed for HCT116 FOP control reporter cell line?
[reply] ≤ 4.30

[ask] For the record COc1ccc(C(=O)Nc2ccc(-c3ccccc3F)nc2)cc1NC(=O)C1(N2CCOCC2)CCC1 [Example 82] , what value of pIC50 is listed for HCT116 FOP control reporter cell line?
[reply] ≤ 4.30

[ask] For the record COCCN(C)CC(=O)Nc1cc(C(=O)Nc2nnc(-c3ccccc3)s2)ccc1OC(F)(F)F [Example 85] , what value of pIC50 is listed for HCT116 FOP control reporter cell line?
[reply] ≤ 4.30

[ask] For the record O=C(CN1CCOCC1)Nc1cc(C(=O)Nc2nnc(-c3ccccc3)s2)ccc1OC(F)(F)F [Example 55] , what value of pIC50 is listed for HCT116 FOP control reporter cell line?
[reply] ≤ 4.30

----------
// reported IC50 for each item listed
System: HEK293 FOP control reporter cell line
measurement notes: HEK293 FOP control reporter assay
Format: cell-based, human
run conditions: Homo sapiens, HEK293, 16 h; read-out: HEK FOP IC50
Please respond with the number in µM and leave the unit unwritten.

[ask] Which IC50 value belongs to O=C(CN1CCOCC1)Nc1cc(NC(=O)c2ccc(-c3ccccc3)nc2)ccc1OC(F)(F)F ?
[reply] 7.4

---
[ask] Which IC50 value belongs to COc1ccc(NC(=O)c2ccc(-c3ccccc3)s2)cc1NC(=O)CN1CCOCC1 ?
[reply] 10

----------
// reported IC50 for each item listed
Tested on: HEK293 FOP control reporter cell line
measurement notes: HEK293 FOP control reporter assay
Format: cell-based, human
run conditions: Homo sapiens, HEK293, 16 h; read-out: HEK FOP IC50

Worked set:
[ask] For the record CC(C(=O)Nc1cc(C(=O)Nc2nnc(-c3ccccc3)s2)ccc1OC(F)(F)F)N1CCOCC1 (stereo not shown) , what value of IC50 is listed for HEK293 FOP control reporter cell line?
[reply] ≥ 50 µM

[ask] For the record O=C(CN1CCOCC1)Nc1cc(NC(=O)c2ccc(-c3cccc(F)c3F)nc2)ccc1OC(F)(F)F , what value of IC50 is listed for HEK293 FOP control reporter cell line?
[reply] ≥ 50 µM

[ask] For the record O=C(CN1CCOCC1)Nc1cc(NC(=O)c2ncc(-c3ccccc3)s2)ccc1OC(F)(F)F , what value of IC50 is listed for HEK293 FOP control reporter cell line?
[reply] ≥ 50 µM

Next, consider the following compound.
[ask] For the record COCc1ccc(C(=O)Nc2nnc(-c3ccccc3)s2)cc1NC(=O)C1(N2CCN(C)CC2)CC1 , what value of IC50 is listed for HEK293 FOP control reporter cell line?
[reply] ≥ 50 µM

----------
Test system: wildtype Wnt pathway
measurement notes: HEK293 TOP reporter assay, wildtype Wnt pathway stimulated with Wnt-3a
Format: cell-based, human
run conditions: Homo sapiens, HEK293, 16 h; read-out: HEK TOP OncoFlash IC50
quantity: IC50 (µM)
Please respond with the number in µM and leave the unit unwritten.

[ask] Which IC50 value belongs to O=C(Nc1nnc(-c2ccccc2)s1)c1ccc(OC2CC2)c(NC(=O)C2(N3CCOCC3)CC2)c1 [Example 159] ?
[reply] 0.054

[ask] Which IC50 value belongs to CS(=O)(=O)Cc1ccc(C(=O)Nc2nnc(-c3ccccc3)s2)cc1NC(=O)C1(N2CCN(C3CC3)CC2)CC1 [Example 48] ?
[reply] 0.13

[ask] Which IC50 value belongs to O=C(CN1CCOCC1)Nc1cc(C(=O)Nc2ccc(-c3ccccc3F)nc2)ccc1OC1CC1 [Example 133] ?
[reply] 0.13

---
[ask] Which IC50 value belongs to O=C(CN1CCOCC1)Nc1cc(NC(=O)c2ncc(-c3ccccc3)s2)ccc1OC(F)(F)F [Example 16] ?
[reply] 0.092

----------
Tested on: HCT116 FOP control reporter cell line
measurement notes: HCT116 FOPFlash control reporter assay (FOP control vector, non-functional TCF elements)
Type: cell-based
run conditions: Homo sapiens, HCT-116, 36 h, HCT116 FOP control reporter cells, 36 hours incubation, luciferase expression
quantity: IC50 (µM)
Please respond with the number in µM and leave the unit unwritten.

[ask] Which IC50 value belongs to O=C(CN1C[C@@H]2C[C@H]1CO2)Nc1cc(C(=O)Nc2ccc(-c3cc(F)cc(F)c3)nc2)ccc1OC(F)(F)F ?
[reply] 6.3

[ask] Which IC50 value belongs to Cc1ccccc1-c1nnc(NC(=O)c2ccc(OC(F)(F)F)c(NC(=O)CN3CCOCC3)c2)s1 ?
[reply] 26.4

[ask] Which IC50 value belongs to CN1CCN(CC(=O)Nc2cc(C(=O)Nc3nnc(-c4ccccc4Cl)s3)ccc2OC(F)(F)F)CC1 ?
[reply] 36.5

[ask] Which IC50 value belongs to CC(C(=O)Nc1cc(NC(=O)c2ccc(-c3cccc(F)c3)nc2)ccc1OC(F)(F)F)N1C[C@@H]2C[C@H]1CO2 (relative stereo) [Example 193] ?
[reply] 8.8

[ask] Which IC50 value belongs to CC(C(=O)Nc1cc(NC(=O)c2ccc(-c3cccc(F)c3)nc2)ccc1OC(F)(F)F)N1C[C@@H]2C[C@H]1CO2 (stereo partly drawn) [Example 199] ?
[reply] 8.8

[ask] Which IC50 value belongs to O=C(CN1CCOCC1)Nc1cc(C(=O)Nc2ccc(-c3cc(F)cc(F)c3)nc2)ccc1OC(F)(F)F ?
[reply] 8

----------
// reported pIC50 for each item listed
Tested on: wildtype Wnt pathway
measurement notes: HEK293 TOP reporter assay, wildtype Wnt pathway stimulated with Wnt-3a
Type: cell-based, human
run conditions: Homo sapiens, HEK293, 16 h; read-out: HEK TOP OncoFlash IC50
Please treat pIC50 as minus the base-10 logarithm of the molar concentration.

Worked set:
[ask] Which pIC50 value belongs to COCc1ccc(C(=O)Nc2nnc(-c3ccccc3)s2)cc1NC(=O)C1(N2CCOCC2)CC1 ?
[reply] 6.96

[ask] Which pIC50 value belongs to COc1ccc(NC(=O)c2ccc(-c3ccccc3)s2)cc1NC(=O)CN1CCOCC1 ?
[reply] 7.05

[ask] Which pIC50 value belongs to O=C(CN1CCOCC1)Nc1cc(NC(=O)c2ccc(-c3ccccc3)s2)ccc1OC(F)(F)F ?
[reply] 7.48

---
[ask] Which pIC50 value belongs to COc1ccc(NC(=O)c2ccc(-c3ccccc3F)nc2)cc1NC(=O)C1(N2CCOCC2)CC1 ?
[reply] 6.74

[ask] Which pIC50 value belongs to O=C(CN1CCOCC1)Nc1cc(NC(=O)c2ccc(-c3ccccc3)nc2)ccc1OC(F)(F)F ?
[reply] 6.43

[ask] Which pIC50 value belongs to COCc1ccc(C(=O)Nc2nnc(-c3ccccc3)s2)cc1NC(=O)CN1CCN(C)CC1 ?
[reply] 6.16

[ask] Which pIC50 value belongs to O=C(Nc1ccc(-c2ccccc2F)nc1)c1ccc(OC2CC2)c(NC(=O)C2(N3CCOCC3)CC2)c1 ?
[reply] 7.51
